assayed_target: anti-H3K9me3 antibody ab8898
protocol_notes: peptide microarray binding signal (635 nm), min-max normalized on array (fraction of array maximum); higher = stronger binding
recorded_conditions: peptide region: Unmod H4 variant; binder concentration: 1:2,000 dilution
endpoint_label: peptide microarray binding signal
# respond with the number and nothing more

YEETRGVLKVFLE [Unmod H4 variant Y E E T R G V L K V F L E] = 0.000287
IQGITKPAIRRLA [Unmod H4 variant I Q G I T K P A I R R L A] = 0.00663
FLENVIRDAVTYT [Unmod H4 variant F L E N V I R D A V T Y T] = 0.00331

Item under review: VLRDNIQGITKPA [Unmod H4 variant V L R D N I Q G I T K P A] . Reported peptide microarray binding signal?
0.00264
